tgt: GluA2 (Rattus norvegicus, UniProt P19491)
Construct: expressed in transfected cells; host or cells: HEK293T
Sequence (P19491 22-883 isoform P19491-2 limits assumed): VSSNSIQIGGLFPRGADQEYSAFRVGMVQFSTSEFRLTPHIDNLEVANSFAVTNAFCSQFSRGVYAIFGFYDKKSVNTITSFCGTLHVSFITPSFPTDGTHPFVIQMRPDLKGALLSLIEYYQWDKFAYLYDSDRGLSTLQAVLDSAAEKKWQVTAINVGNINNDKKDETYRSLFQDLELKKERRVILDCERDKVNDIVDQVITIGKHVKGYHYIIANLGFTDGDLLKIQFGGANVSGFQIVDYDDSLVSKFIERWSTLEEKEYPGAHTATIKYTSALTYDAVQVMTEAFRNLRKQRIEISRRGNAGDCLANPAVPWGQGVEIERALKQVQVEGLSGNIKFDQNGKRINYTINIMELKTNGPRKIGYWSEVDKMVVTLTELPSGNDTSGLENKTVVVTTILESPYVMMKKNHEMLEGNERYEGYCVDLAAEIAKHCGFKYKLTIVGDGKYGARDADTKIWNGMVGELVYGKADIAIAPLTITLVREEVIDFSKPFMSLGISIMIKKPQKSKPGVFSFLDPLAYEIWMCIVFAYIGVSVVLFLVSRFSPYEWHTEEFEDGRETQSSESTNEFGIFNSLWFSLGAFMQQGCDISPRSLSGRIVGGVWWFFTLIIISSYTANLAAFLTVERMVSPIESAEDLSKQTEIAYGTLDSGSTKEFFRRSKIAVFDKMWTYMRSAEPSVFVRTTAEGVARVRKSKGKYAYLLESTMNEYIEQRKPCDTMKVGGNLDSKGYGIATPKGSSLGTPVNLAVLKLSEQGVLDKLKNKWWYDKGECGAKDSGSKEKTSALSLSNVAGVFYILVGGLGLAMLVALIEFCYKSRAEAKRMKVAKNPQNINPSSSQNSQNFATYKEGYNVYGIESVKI
measurement description: Whole-cell patch-clamp recording of homomeric GluA2 AMPAR expressed in HEK293T cells
Assay type: cell-based
condition description: normalized peak current, -60 mV, pH 7.4, 22 °C, read-out: IC50
pIC50: −log10 of the molar value.
assay readout: pIC50

Check out these entries, answers already filled in.
{"columns": ["entry smiles", "observed result"],
 "data": [
  ["Nc1ccc(C2=NNC(=O)Cc3cc4c(cc32)OCO4)c(F)c1", 5.52],
  ["COc1cc([N+](=O)[O-])ccc1C1=NNC(=O)Cc2cc3c(cc21)OCO3", 5.17]
]}

P. O=C1Cc2cc3c(cc2C(c2ccc([N+](=O)[O-])cc2F)=NN1)OCO3
Q. COc1cc(N)ccc1C1=NNC(=O)Cc2cc3c(cc21)OCO3
## Input Input pair: P , Q . Output: entry with lower pIC50. Record your answer as the label of the chosen record.
## Output P
(P: 5.24, Q: 5.47)

Entry source: paper PMC10458471
